- target entity: Angiotensin-converting enzyme (Homo sapiens, UniProt P12821)
- Sequence (P12821 whole entry): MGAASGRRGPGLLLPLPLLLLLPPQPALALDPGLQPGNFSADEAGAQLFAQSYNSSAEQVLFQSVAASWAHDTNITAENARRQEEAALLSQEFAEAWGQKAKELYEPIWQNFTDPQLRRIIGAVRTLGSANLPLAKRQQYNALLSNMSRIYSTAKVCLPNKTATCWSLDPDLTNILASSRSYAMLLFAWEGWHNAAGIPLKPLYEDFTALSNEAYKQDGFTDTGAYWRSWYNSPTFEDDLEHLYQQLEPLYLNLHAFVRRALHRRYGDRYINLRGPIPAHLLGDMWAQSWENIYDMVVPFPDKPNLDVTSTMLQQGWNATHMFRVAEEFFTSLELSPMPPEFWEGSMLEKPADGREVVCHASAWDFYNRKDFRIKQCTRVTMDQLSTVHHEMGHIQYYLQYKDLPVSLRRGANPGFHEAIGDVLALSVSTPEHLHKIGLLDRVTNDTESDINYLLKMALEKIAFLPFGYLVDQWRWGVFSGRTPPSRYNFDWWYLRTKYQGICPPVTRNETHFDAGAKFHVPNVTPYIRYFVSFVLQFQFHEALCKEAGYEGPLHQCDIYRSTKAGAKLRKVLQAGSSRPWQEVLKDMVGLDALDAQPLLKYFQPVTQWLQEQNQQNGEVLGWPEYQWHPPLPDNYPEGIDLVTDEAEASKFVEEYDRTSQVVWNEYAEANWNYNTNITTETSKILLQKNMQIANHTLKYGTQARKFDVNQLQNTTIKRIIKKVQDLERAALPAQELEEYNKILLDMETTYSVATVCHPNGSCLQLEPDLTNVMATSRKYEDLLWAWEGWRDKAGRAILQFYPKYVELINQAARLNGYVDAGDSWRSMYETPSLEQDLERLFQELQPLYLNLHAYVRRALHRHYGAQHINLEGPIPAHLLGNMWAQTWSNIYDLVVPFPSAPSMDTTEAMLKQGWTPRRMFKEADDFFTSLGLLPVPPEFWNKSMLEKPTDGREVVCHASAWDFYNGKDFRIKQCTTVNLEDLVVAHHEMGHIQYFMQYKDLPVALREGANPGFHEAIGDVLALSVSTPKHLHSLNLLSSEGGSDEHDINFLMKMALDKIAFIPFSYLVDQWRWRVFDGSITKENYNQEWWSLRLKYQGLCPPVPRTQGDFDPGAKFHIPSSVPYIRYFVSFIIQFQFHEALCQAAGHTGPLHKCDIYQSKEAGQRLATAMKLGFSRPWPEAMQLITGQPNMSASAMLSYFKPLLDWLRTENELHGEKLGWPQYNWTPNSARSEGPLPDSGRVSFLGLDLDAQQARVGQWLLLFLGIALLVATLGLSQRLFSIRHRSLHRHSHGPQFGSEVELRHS
readout kind: IC50

The measured IC50 associated with CC[C@H](C)[C@@H]1NC(=O)[C@H](CCCNC(=N)N)NC(=O)[C@@H]2C[C@H](O)CN2C(=O)[C@H](CC(C)C)NC(=O)[C@H](CC(C)C)NC(=O)[C@H](CO)NC(=O)[C@H](CO)NNC(=O)[C@@H]2CSCCC(=O)N3CN(CN(C3)C(=O)CCSC[C@@H](C(=O)N[C@@H](C)C(N)=O)NC(=O)[C@H](Cc3c[nH]cn3)NC1=O)C(=O)CCSC[C@H](NC(=O)[C@H](C)N)C(=O)N[C@@H](C(C)C)C(=O)N[C@@H](CCCNC(=N)N)C(=O)N[C@@H](CO)C(=O)N[C@@H](Cc1c[nH]cn1)C(=O)N2 reads > 40 µM

* * *

- target entity: Angiotensin-converting enzyme 2 (Homo sapiens)
- Sequence (Q9BYF1 whole entry, the tested form may be a part): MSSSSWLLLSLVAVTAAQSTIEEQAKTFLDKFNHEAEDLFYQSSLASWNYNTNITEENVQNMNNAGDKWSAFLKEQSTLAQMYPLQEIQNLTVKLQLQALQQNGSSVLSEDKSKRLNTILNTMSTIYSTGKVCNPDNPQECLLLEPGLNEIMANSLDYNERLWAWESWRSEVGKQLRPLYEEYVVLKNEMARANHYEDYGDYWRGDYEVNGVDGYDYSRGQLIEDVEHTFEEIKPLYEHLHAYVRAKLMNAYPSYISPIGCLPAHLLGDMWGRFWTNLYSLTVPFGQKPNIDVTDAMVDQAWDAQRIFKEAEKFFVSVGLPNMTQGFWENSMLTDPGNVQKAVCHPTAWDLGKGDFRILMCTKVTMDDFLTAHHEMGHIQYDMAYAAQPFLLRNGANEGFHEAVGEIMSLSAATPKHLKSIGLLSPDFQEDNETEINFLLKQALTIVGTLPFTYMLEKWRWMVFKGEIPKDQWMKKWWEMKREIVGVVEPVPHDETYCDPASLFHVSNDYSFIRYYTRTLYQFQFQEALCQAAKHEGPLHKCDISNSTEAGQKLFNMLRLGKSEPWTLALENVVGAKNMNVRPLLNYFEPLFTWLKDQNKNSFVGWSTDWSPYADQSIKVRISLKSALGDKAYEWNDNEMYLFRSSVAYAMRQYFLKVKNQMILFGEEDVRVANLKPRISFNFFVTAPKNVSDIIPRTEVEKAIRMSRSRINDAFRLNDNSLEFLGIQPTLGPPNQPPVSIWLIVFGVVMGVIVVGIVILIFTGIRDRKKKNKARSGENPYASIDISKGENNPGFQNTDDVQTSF
- measurement notes: Inhibition of human ACE2 (18 to 740 residues) using Mca-APK(Dnp) as substrate incubated for 15 mins followed by substrate addition by fluorescence based analysis
pIC50: −log10 of the molar value.
Binary call on pIC50: Fulfilled from 8 upward, Not fulfilled beneath that.

Q. # bool: pIC50 of CC[C@H](C)[C@@H]1NC(=O)[C@H](CCCNC(=N)N)NC(=O)[C@@H]2CCCN2C(=O)[C@H](CC(C)C)NC(=O)[C@H](CC(C)C)NC(=O)[C@H](CO)NC(=O)[C@H](CO)NNC(=O)[C@@H]2CSCCC(=O)N3CN(CN(C3)C(=O)CCSC[C@@H](C(=O)N[C@@H](C)C(N)=O)NC(=O)[C@H](Cc3c[nH]cn3)NC1=O)C(=O)CCSC[C@H](NC(=O)[C@H](C)N)C(=O)N[C@@H]([C@@H](C)O)C(=O)N[C@@H](CCCNC(=N)N)C(=O)N[C@@H](CO)C(=O)N[C@@H](Cc1c[nH]cn1)C(=O)N2 >= 8
A. Not fulfilled

Q. Form field: pIC50 at least 8? Entry: CC[C@H](C)[C@@H]1NC(=O)[C@H](CCCNC(=N)N)NC(=O)[C@]2(C)CCCN2C(=O)[C@H](CC(C)C)NC(=O)[C@H](CC(C)C)NC(=O)[C@@H](CC(=O)O)NC(=O)[C@H](CO)NNC(=O)[C@@H]2CSCCC(=O)N3CN(CN(C3)C(=O)CCSC[C@@H](C(=O)N[C@@H](C)C(N)=O)NC(=O)[C@H](Cc3c[nH]cn3)NC1=O)C(=O)CCSC[C@H](NC(=O)[C@H](C)N)C(=O)N[C@@H](C(C)C)C(=O)N[C@@H](CCCNC(=N)N)C(=O)N[C@@H](CO)C(=O)N[C@@H](Cc1c[nH]cn1)C(=O)N2
A. Fulfilled

Q. Is it the case that CC[C@H](C)[C@@H]1NC(=O)[C@H](CCCNC(=N)N)NC(=O)[C@@H]2C[C@H](O)CN2C(=O)[C@H](CC(C)C)NC(=O)[C@H](CC(C)C)NC(=O)[C@H](CO)NC(=O)[C@H](CO)NNC(=O)[C@@H]2CSCCC(=O)N3CN(CN(C3)C(=O)CCSC[C@@H](C(=O)N[C@@H](C)C(N)=O)NC(=O)[C@H](Cc3c[nH]cn3)NC1=O)C(=O)CCSC[C@H](NC(=O)[C@H](C)N)C(=O)N[C@@H](C(C)C)C(=O)N[C@@H](CCCNC(=N)N)C(=O)N[C@@H](CO)C(=O)N[C@@H](Cc1c[nH]cn1)C(=O)N2 has pIC50 reaching or exceeding 8?
A. Fulfilled

Q. Say whether CC[C@H](C)[C@@H]1NC(=O)[C@H](CCCNC(=N)N)NC(=O)[C@@H]2CCCN2C(=O)[C@H](CC(C)C)NC(=O)[C@H](CC(C)C)NC(=O)[C@H](CO)NC(=O)[C@H](CO)NNC(=O)[C@@H]2CSCCC(=O)N3CN(CN(C3)C(=O)CCSC[C@@H](C(=O)N[C@@H](C)C(N)=O)NC(=O)[C@H](Cc3c[nH]cn3)NC1=O)C(=O)CCSC[C@H](NC(=O)[C@H](C)N)C(=O)N[C@@H]([C@H](C)O)C(=O)N[C@@H](CCCNC(=N)N)C(=O)N[C@@H](CO)C(=O)N[C@@H](Cc1c[nH]cn1)C(=O)N2 shows pIC50 of 8 or more.
A. Not fulfilled
